target: serotonin (5-HT) reuptake (Rattus norvegicus); construct: synaptosomes are freshly isolated from areas of the rat brain; from tissue; host or cells: rat brain synaptosomes (P2 fraction); experiment: Inhibition of serotonin (5HT) reuptake in synaptosomes from rat brain; assay type: biochemical; conditions: test concentration of 10 μM
Sequence (P31652 whole entry): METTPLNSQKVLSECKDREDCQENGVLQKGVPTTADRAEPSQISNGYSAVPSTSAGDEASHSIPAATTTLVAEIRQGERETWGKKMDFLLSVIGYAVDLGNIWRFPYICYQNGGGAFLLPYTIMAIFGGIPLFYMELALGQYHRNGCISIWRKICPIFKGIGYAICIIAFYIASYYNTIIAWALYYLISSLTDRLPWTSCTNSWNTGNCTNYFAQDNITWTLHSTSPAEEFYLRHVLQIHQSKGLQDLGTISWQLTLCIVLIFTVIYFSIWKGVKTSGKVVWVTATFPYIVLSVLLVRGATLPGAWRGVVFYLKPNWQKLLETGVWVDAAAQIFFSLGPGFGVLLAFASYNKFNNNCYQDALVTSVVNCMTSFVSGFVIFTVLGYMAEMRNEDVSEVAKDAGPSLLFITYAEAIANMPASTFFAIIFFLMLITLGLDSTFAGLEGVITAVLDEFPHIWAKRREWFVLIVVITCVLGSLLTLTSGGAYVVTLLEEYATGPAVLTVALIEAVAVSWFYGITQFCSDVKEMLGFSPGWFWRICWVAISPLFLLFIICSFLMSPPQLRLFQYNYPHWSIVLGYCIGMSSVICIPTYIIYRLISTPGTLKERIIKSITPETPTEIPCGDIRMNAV
Each entry below carries its reported 5-HT (inhibition of reuptake of serotonin, % inhibition).
Provide the reading as a plain figure in %.

Field: example entries. Status: answers known.
CN(C)C(c1ccc(F)cc1)C1CCC(CNC(=O)COC2CCCCC2N(C)S(=O)(=O)c2ccc(Cl)c(Cl)c2)CC1 (centres unmarked) [Example 359]
90
CN(C)C(c1ccc(F)cc1)C1CCC(NC(=O)COCCN(C)S(=O)(=O)c2ccc(F)cc2)CC1 (centres unmarked) [Example 357]
86
CN(C)C(CCc1ccccc1)C1CCC(CNC(=O)COC2CCCCC2N(C)S(=O)(=O)c2ccc(Cl)c(Cl)c2)CC1 (centres unmarked) [Example 451]
84
CN(C)C(c1ccccc1)C1CCC(NC(=O)COc2ccc(Cl)cc2)CC1 (centres unmarked) [Example 316]
59
COc1cc(C)c(S(=O)(=O)N2CCC(CCOCC(=O)NCCC3CCC(C(c4cccc(F)c4)N(C)C)CC3)CC2)c(C)c1C (centres unmarked) [Example 397]
93
COc1ccc(S(=O)(=O)N(C)CCOCC(=O)NC2CCC(C(c3ccc(F)cc3)N(C)C)CC2)cc1 (centres unmarked) [Example 549]
81

Here is the next item to consider.
[Q] Form field: reported 5-HT (inhibition of reuptake of serotonin, % inhibition) of CCN(CCOCC(=O)NCC1CCC(C(c2ccc(F)cc2)N(C)C)CC1)S(=O)(=O)c1c(C)cc(OC)c(C)c1C (centres unmarked) [Example 327]
[A] 90

====

Each entry below carries its reported inhibition at 10 µM.
molecular target: serotonin (5-HT) reuptake (Rattus norvegicus); construct: synaptosomes are freshly isolated from areas of the rat brain; from tissue; host or cells: rat brain synaptosomes (P2 fraction); assay: Inhibition of serotonin (5HT) reuptake in synaptosomes from rat brain; format: biochemical; conditions: test concentration of 10 μM; read-out: 5-HT (inhibition of reuptake of serotonin, % inhibition)
Provide the reading as a plain figure in %.

Field: example entries. Status: answers known.
Cc1ccc(S(=O)(=O)N2CCC(OCC(=O)NCC3CCC(C(c4cccc(F)c4)N(C)C)CC3)C2)cc1 (stereo not shown) [Example 185]
102
CN(C)C(c1ccccc1)C1CCC(CNC(=O)COC2CCN(S(=O)(=O)c3ccc(Cl)cc3Cl)C2)CC1 (stereo not shown) [Example 67]
87
CN(C)C(c1cccs1)C1CCC(CNC(=O)COCCN(C)S(=O)(=O)c2ccc(OC(F)(F)F)cc2)CC1 (stereo not shown) [Example 93]
93
CC(Oc1ccccc1)C(=O)NC1CCC(C(c2cccc(F)c2)N(C)C)CC1 (stereo not shown) [Example 153]
27

[Q] Form field: reported inhibition at 10 µM of COc1cc(C)c(S(=O)(=O)N(C)CCOCC(=O)NC2CCC(C(c3ccccc3)N(C)C)CC2)c(C)c1C (stereo not shown) [Example 80]
[A] 84

[Q] Form field: reported inhibition at 10 µM of CN(C)C(c1cccc(F)c1)C1CCC(CNC(=O)COC2CCCCC2N(C)S(=O)(=O)c2ccc(Cl)c(Cl)c2)CC1 (stereo not shown) [Example 164]
[A] 90

[Q] Form field: reported inhibition at 10 µM of Cc1cc(C)c(S(=O)(=O)N2CCC(OCC(=O)NCC3CCC(C(c4ccccc4)N(C)C)CC3)C2)c(C)c1 (stereo not shown) [Example 26]
[A] 83

The values you see were collected from patent US8106055B2.
